- assayed.system: human adenosine A2A receptor (Homo sapiens, UniProt P29274)
- Construct: expressed in transfected cells; host or cells: CHO cells, semliki forest virus expression system; washed membranes
- Sequence (P29274 whole entry): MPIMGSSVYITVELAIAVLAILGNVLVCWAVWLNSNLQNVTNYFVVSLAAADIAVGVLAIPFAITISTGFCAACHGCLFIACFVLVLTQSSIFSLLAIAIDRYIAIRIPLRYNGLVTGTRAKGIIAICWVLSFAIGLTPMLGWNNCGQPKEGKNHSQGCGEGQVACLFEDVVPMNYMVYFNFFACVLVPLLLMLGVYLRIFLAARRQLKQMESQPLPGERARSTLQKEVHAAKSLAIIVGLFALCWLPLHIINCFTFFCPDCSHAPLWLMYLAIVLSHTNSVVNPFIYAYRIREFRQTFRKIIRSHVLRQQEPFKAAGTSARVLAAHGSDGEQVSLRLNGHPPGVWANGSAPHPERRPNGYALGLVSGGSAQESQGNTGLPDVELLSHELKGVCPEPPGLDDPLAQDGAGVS
- method.summary: [3H]-SCH-58261 binding assay, human adenosine A2A receptor (CHO cell membranes, SPA)
- stated.conditions: [3H]-SCH-58261 displacement; list of examples 10-108; read-out: hA2a Ki
Label YES when Ki is strictly below 200 nM; at or above that, label NO.

{"columns": ["compound", "assayed.system", "cat"],
 "data": [
  ["CCN(CC)C(=O)C1CCCN(C(=O)c2cc(N)c3nc(-c4cccs4)nn3c2)C1 (stereo not shown)", "human adenosine A2A receptor (Homo sapiens, UniProt P29274)", "NO"],
  ["COC[C@@H]1CCCN1C(=O)c1cc(N)c2nc(-c3ccc(C)o3)nn2c1 (stereo in doubt)", "human adenosine A2A receptor (Homo sapiens, UniProt P29274)", "NO"],
  ["CN(CCC#N)C(=O)c1cc(N)c2nc(-c3ccc(Br)o3)nn2c1", "human adenosine A2A receptor (Homo sapiens, UniProt P29274)", "YES"],
  ["COCC1CCCN1C(=O)c1cc(N)c2nc(-c3ccccc3)nn2c1 (stereo in doubt)", "human adenosine A2A receptor (Homo sapiens, UniProt P29274)", "NO"],
  ["CCN(CC)C(=O)C1CCCN(C(=O)c2cc(N)c3nc(-c4ccccn4)nn3c2)C1 (stereo not shown)", "human adenosine A2A receptor (Homo sapiens, UniProt P29274)", "NO"],
  ["Nc1cc(C(=O)N(Cc2ccccc2)Cc2ccccc2)cn2nc(-c3ccco3)nc12", "human adenosine A2A receptor (Homo sapiens, UniProt P29274)", "YES"]
]}

**Q:** A record lists `CN(C)C(=O)CN(C)C(=O)c1cc(N)c2nc(-c3ccccc3)nn2c1` . Is its Ki below 200 nM?
**A:** NO

**Q:** I wonder whether `CCN(CC)C(=O)c1cc(N)c2nc(-c3ccc(C)s3)nn2c1` has Ki below 200 nM. Can you tell?
**A:** NO

**Q:** Dear colleague, could you confirm whether Ki of CC1CCCN1C(=O)c1cc(N)c2nc(-c3ccccc3)nn2c1 (stereo not shown) falls below 200 nM? Thanks.
**A:** YES

**Q:** Here's an entry: `CCCN(C)C(=O)c1cc(N)c2nc(-c3ccco3)nn2c1` . Is its Ki below 200 nM?
**A:** NO

**Q:** # TODO verify Ki < 200 nM strictly for this compound: CC1CCCN(C(=O)c2cc(N)c3nc(-c4cccs4)nn3c2)C1 (stereo not shown)
**A:** NO

**Q:** Quick check: does `CCCN(CCC)C(=O)c1cc(N)c2nc(-c3cccs3)nn2c1` have Ki under 200 nM?
**A:** NO
